Values were extracted from ChEMBL document CHEMBL1914395.

# measured-target: NAD(P)H dehydrogenase [quinone] 1 (Mus musculus)
# assay-method-text: Induction of quinone reductase 1 activity in mouse Hepa-1c1c7 cells assessed as cell survival at 50 uM by MTT assay relative to control
# Type: cell-based
Rule: measured Survival below 90% gets MET; anything equal to or greater than 90% gets NOT MET.

1. C#CCN1Cc2[nH]c3ccccc3c2C[C@@H]1C(=O)O = NOT MET
2. COC(=O)[C@H]1Cc2c([nH]c3ccccc23)CN1S(C)(=O)=O = MET
3. COC(=O)[C@H]1Cc2c([nH]c3ccccc23)CN1Cc1ccc(O)cc1 = NOT MET
4. Cc1ccc(S(=O)(=O)N2Cc3[nH]c4ccccc4c3C[C@@H]2C(=O)O)cc1 = NOT MET
5. COC(=O)[C@@H]1Cc2c([nH]c3ccccc23)CN1C(=O)NC(C)C = MET
6. COC(=O)[C@@H]1Cc2c([nH]c3ccccc23)CN1 = NOT MET
7. COC(=O)[C@@H]1Cc2c([nH]c3ccccc23)CN1S(C)(=O)=O = MET
8. COC(=O)[C@@H]1Cc2c([nH]c3ccccc23)CN1Cc1ccc(OCc2ccccc2)cc1 = MET
9. O=C(O)[C@@H]1Cc2c([nH]c3ccccc23)CN1 [CYCLOMETHYLTRYPTOPHAN] = NOT MET
10. CCCCCNC(=O)N1Cc2[nH]c3ccccc3c2C[C@H]1C(=O)OC = MET
11. COC(=O)[C@H]1Cc2c([nH]c3ccccc23)CN1C(=O)NCCc1ccccc1 = MET
12. COC(=O)[C@@H]1Cc2c([nH]c3ccccc23)CN1CC1CC1 = MET

###

Form field: Ratio (one value per entry).
# measured-target: NAD(P)H dehydrogenase [quinone] 1 (Mus musculus) (UniProt Q64669)
# Sequence (Q64669 whole entry): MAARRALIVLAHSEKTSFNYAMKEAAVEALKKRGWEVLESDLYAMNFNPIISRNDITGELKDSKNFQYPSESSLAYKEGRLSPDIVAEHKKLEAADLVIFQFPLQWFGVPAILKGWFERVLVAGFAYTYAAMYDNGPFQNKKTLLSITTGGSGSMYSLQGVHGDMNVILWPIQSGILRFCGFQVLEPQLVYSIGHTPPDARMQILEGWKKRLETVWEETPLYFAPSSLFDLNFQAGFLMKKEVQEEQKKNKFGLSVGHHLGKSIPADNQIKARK
# assay-method-text: Induction of quinone reductase 1 activity in mouse Hepa-1c1c7 cells at 50 uM by MTT assay relative to untreated control
# Assay type: cell-based
measured-attribute: Ratio

1) COC(=O)[C@@H]1Cc2c([nH]c3ccccc23)CN1 = 1.1
2) O=C(O)[C@H]1Cc2c([nH]c3ccccc23)CN1S(=O)(=O)c1ccc(Br)cc1 = 1.3
3) COC(=O)[C@@H]1Cc2c([nH]c3ccccc23)CN1Cc1ccccc1 = 1.6
4) COC(=O)[C@@H]1Cc2c([nH]c3ccccc23)CN1C(=O)NC(C)C = 2.9
5) COC(=O)[C@@H]1Cc2c([nH]c3ccccc23)CN1Cc1ccc(OCc2ccccc2)cc1 = 1.8
6) COC(=O)[C@@H]1Cc2c([nH]c3ccccc23)CN1CC1CC1 = 2.2
7) O=C(O)[C@@H]1Cc2c([nH]c3ccccc23)CN1 = 1.1
8) COC(=O)[C@H]1Cc2c([nH]c3ccccc23)CN1C(=O)NC12CC3CC(CC(C3)C1)C2 = 0.4
9) C#CCN1Cc2[nH]c3ccccc3c2C[C@@H]1C(=O)O = 1.6
10) CCCCCNC(=O)N1Cc2[nH]c3ccccc3c2C[C@H]1C(=O)OC = 4.9
11) COC(=O)[C@@H]1Cc2c([nH]c3ccccc23)CN1C(=O)NCCc1ccccc1 = 0.5
12) COC(=O)[C@H]1Cc2c([nH]c3ccccc23)CN1S(=O)(=O)c1ccc(Br)cc1 = 2.1
13) O=C(O)[C@H]1Cc2c([nH]c3ccccc23)CN1CC1CC1 = 1.8
14) COC(=O)[C@H]1Cc2c([nH]c3ccccc23)CN1C(=O)NC(C)C = 2.7
15) COC(=O)[C@H]1Cc2c([nH]c3ccccc23)CN1 = 1.1
16) C=CCOC(=O)N1Cc2[nH]c3ccccc3c2C[C@@H]1C(=O)O = 1.9
17) COC(=O)[C@@H]1Cc2c([nH]c3ccccc23)CN1S(C)(=O)=O = 1.6
18) C#CCN1Cc2[nH]c3ccccc3c2C[C@@H]1C(=O)OC = 2
19) COC(=O)[C@@H]1Cc2c([nH]c3ccccc23)CN1C(=O)NC12CC3CC(CC(C3)C1)C2 = 0.9
20) O=C(O)[C@H]1Cc2c([nH]c3ccccc23)CN1Cc1ccccc1 = 1.8
21) C=CCOC(=O)N1Cc2[nH]c3ccccc3c2C[C@H]1C(=O)OC = 1.9
22) COC(=O)[C@H]1Cc2c([nH]c3ccccc23)CN1C(=O)NCCc1ccccc1 = 1.5
23) COC(=O)[C@H]1Cc2c([nH]c3ccccc23)CN1S(=O)(=O)c1ccc(C)cc1 = 1.3
24) COC(=O)[C@H]1Cc2c([nH]c3ccccc23)CN1Cc1ccccc1 = 1.2
25) C#CCN1Cc2[nH]c3ccccc3c2C[C@H]1C(=O)O = 2.2
26) COC(=O)[C@@H]1Cc2c([nH]c3ccccc23)CN1Cc1ccc(O)cc1 = 1.3
27) CS(=O)(=O)N1Cc2[nH]c3ccccc3c2C[C@@H]1C(=O)O = 1.9
28) C#CCN1Cc2[nH]c3ccccc3c2C[C@H]1C(=O)OC = 1.7
29) O=C(O)[C@@H]1Cc2c([nH]c3ccccc23)CN1Cc1ccccc1 = 2.4
30) COC(=O)[C@H]1Cc2c([nH]c3ccccc23)CN1S(C)(=O)=O = 1.6
31) COC(=O)[C@@H]1Cc2c([nH]c3ccccc23)CN1C(=O)NC1CCCCC1 = 1.1
32) COC(=O)[C@@H]1Cc2c([nH]c3ccccc23)CN1S(=O)(=O)c1ccc(C)cc1 = 1.3
33) O=C(O)[C@@H]1Cc2c([nH]c3ccccc23)CN1Cc1ccc(O)cc1 = 1.7
34) Cc1ccc(S(=O)(=O)N2Cc3[nH]c4ccccc4c3C[C@@H]2C(=O)O)cc1 = 1.2
35) O=C(O)[C@H]1Cc2c([nH]c3ccccc23)CN1Cc1ccc(O)cc1 = 1.5
36) Cc1ccc(S(=O)(=O)N2Cc3[nH]c4ccccc4c3C[C@H]2C(=O)O)cc1 = 1.4
37) COC(=O)[C@H]1Cc2c([nH]c3ccccc23)CN1C(=O)NC1CCCCC1 = 1
38) CS(=O)(=O)N1Cc2[nH]c3ccccc3c2C[C@H]1C(=O)O = 1.1
